# assay_overview: Stability of cannabinoid compounds and Vitamin E components in Beverage 2 (AB Red) by LCMSMS
# Type: physicochemical
# experimental_conditions: stored at 21-25° C., 510 days
quantity_name: Stability of Plant-Derived Cannabinoid Compounds in AB Red (µg/mL)
Answers are plain numbers, in µg/mL.

// for each compound in input: emit Stability of Plant-Derived Cannabinoid Compounds in AB Red
1. C=C(C)[C@@H]1CCC(C)=C[C@H]1c1c(O)cc(CCCCC)c(C(=O)O)c1O
2. CCCCCc1cc(O)c(C/C=C(\C)CCC=C(C)C)c(O)c1
3. CCCc1cc(O)c2c(c1)OC(C)(C)[C@@H]1CCC(C)=C[C@@H]21 [THCV, delta-9-tetrahydrocannabivarin]
4. CCCCCc1cc(O)c2c(c1)OC(C)(CCC=C(C)C)C=C2 (stereo not drawn)
5. CCCCCc1cc(O)c2c(c1)OC(C)(C)c1ccc(C)cc1-2
6. CCCCCc1cc2c(c(O)c1C(=O)O)[C@@H]1C=C(C)CC[C@H]1C(C)(C)O2 [D9 THCA, delta-9-tetrahydrocannabinolic acid]

Result:
1. 1.56
2. 4.37
3. 3.01
4. 0.27
5. 2.66
6. 1.27
